TARGET OF ASSAY: T1, PUF4 RNA-binding domain (Saccharomyces cerevisiae, UniProt P25339 537-888)
T1 sequence: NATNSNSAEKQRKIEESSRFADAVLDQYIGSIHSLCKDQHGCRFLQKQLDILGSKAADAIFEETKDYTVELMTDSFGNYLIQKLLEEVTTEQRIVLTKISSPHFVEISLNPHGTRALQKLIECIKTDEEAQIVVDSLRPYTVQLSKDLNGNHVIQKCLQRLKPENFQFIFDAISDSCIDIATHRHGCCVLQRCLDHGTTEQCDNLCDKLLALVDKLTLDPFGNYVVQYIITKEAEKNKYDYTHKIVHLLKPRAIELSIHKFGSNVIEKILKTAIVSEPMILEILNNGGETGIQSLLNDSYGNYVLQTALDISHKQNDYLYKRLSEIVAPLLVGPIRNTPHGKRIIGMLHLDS
ASSAY OVERVIEW: Mg; RNA-MaP; 20 mM Na-HEPES pH 7.4, 30 mM KOAc, 0.75 mM MgCl2, 0.1% Tween-20, 5% glycerol, 0.1 mg/mL BSA, 2 mM DTT; 25 C; 0.0125-409.6 nM protein
ASSAY CONDITIONS: tags: N-His6-TEV cleaved; C-SNAP kept, Cy3B-labelled; label: tethered on chip by stalled RNA polymerase
METRIC: Kd (nM)
Enter your answer as a number in nM; do not include the unit.

INSERT INTO results (binder, experimental_result) VALUES
  ('Id_ii_S4_P3E.2_K3.1_C3.2_[C-2A]_[T-1A]_H3.1_A3.1_F3.1_T3.2_[A10G] (ssRNA) RNA: UUUGACAACUGAUCGUUCUUUCUAAUGUAUAUAUGUUCUUUCUCGAUCAGUUGUCUUU', 7.52);

Alright, here's another binder for you.
QUERY: If you can, please state the reported Kd value of ACAAACAGUAUAUAUAACACAAAC (ssRNA) [Id_ii_S3_P3E.3_K3.2_C3.2_[C-2A]_[T-1G]_H3.2_A3.1_F3.1_T3.2_[T9A]_[A10C]] .
RESULT: 522

Entry source: paper PMC9352680
